biological target: Nonstructural protein 3 (Zika virus); assay: Functional biochemical assay to identify treatments for viral infectious disease that targets Zika NS2B-NS3 protease. Utilizing a direct enzyme activity measurement method, reading the fluorescence intensity is used to characterize the relative potency of inhibitors as IC50.; parameters: species or system PRVABC59
Sequence (A0A024AXB9 whole entry): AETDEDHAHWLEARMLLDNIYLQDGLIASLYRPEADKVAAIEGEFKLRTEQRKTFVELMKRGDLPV
pIC50: −log10 of the molar value.
Here the recorded pIC50 is given for each entry.
result-type: pIC50

[
  {
    "given-smiles": "O=C(O)c1cc(Cl)ccc1NS(=O)(=O)c1ccc(OCc2cccnn2)cc1",
    "system-under-test": "Nonstructural protein 3 (Zika virus)",
    "result": "< 4.00"
  },
  {
    "given-smiles": "O=C(O)Cn1nc2ccc(-c3cc(Cl)cc(NC(=O)OCc4ccccc4)c3)nn2c1=O",
    "system-under-test": "Nonstructural protein 3 (Zika virus)",
    "result": "< 4.00"
  },
  {
    "given-smiles": "O=C(O)CCCn1cnc(-c2cc(Cl)cc(NC(=O)OCc3ccccc3)c2)n1",
    "system-under-test": "Nonstructural protein 3 (Zika virus)",
    "result": "< 4.00"
  },
  {
    "given-smiles": "Cn1cc([C@@H]2C[C@H](C(=O)Nc3cccc(CN)c3)CC(=O)N2)cn1",
    "system-under-test": "Nonstructural protein 3 (Zika virus)",
    "result": "< 4.00"
  },
  {
    "given-smiles": "CN1C[C@H](c2cccc(CN)c2)[C@@H](c2cc(Cl)cc(NC(=O)OCc3ccccc3)c2)C1",
    "system-under-test": "Nonstructural protein 3 (Zika virus)",
    "result": "< 4.00"
  },
  {
    "given-smiles": "O=C1OCc2ccc(NC(=O)[C@H]3CNCc4[nH]ncc43)cc21",
    "system-under-test": "Nonstructural protein 3 (Zika virus)",
    "result": "< 4.60"
  },
  {
    "given-smiles": "O=C(O)[C@@H]1CCCC[C@H]1NS(=O)(=O)c1ccc(Oc2ccccc2Cl)cc1",
    "system-under-test": "Nonstructural protein 3 (Zika virus)",
    "result": "< 4.00"
  },
  {
    "given-smiles": "O=C(Nc1cc([C@H]2CCOC2)ccn1)c1cc(Cl)cc2c1CCC2",
    "system-under-test": "Nonstructural protein 3 (Zika virus)",
    "result": "< 4.60"
  },
  {
    "given-smiles": "C[C@H]1C[C@@H](C(=O)Nc2cccc(CN)c2)CC(=O)N1",
    "system-under-test": "Nonstructural protein 3 (Zika virus)",
    "result": "< 4.00"
  },
  {
    "given-smiles": "CC[C@@H](C)c1nc(C)cc(N2CCC(n3ncc(N)c3C(F)(F)F)CC2)n1",
    "system-under-test": "Nonstructural protein 3 (Zika virus)",
    "result": "< 4.00"
  }
]

====

target: UniProt A0A024AXB9; assay: Functional biochemical assay to identify treatments for viral infectious disease that targets Zika NS2B-NS3 protease. Utilizing a direct enzyme activity measurement method, reading the fluorescence intensity is used to characterize the relative potency of inhibitors as IC50.; set-up: species or system PRVABC59
pIC50: −log10 of the molar value.

[
  {
    "given-smiles": "COCCCC(=O)N1CCC([C@H](NC(=O)OCc2ccccc2)C(=O)Nc2cccc(CN)c2)CC1",
    "bound-type": "<",
    "pIC50": 4.00
  },
  {
    "given-smiles": "COc1ccc(-c2cccc([C@@H](NC(=O)OCc3ccccc3)C(=O)Nc3cccc(CN)c3)c2)cn1",
    "bound-type": "=",
    "pIC50": 4.45
  },
  {
    "given-smiles": "O=C(Nc1ccc2c(c1)CNC2)c1cc(F)cc2c1CCNC2",
    "bound-type": "=",
    "pIC50": 6.94
  },
  {
    "given-smiles": "CC(C)c1nc2c(C(=O)Nc3cccc(CN)c3)cccc2[nH]1",
    "bound-type": "=",
    "pIC50": 4.85
  },
  {
    "given-smiles": "N#C[C@H](Nc1ccc2c(c1)CNC2)c1cccc2ncccc12",
    "bound-type": "=",
    "pIC50": 5.14
  }
]
